Measured Plant response rating, Pigweed, listed per entry.
Tested on: pigweed (Amaranthus retroflexus)
Test: Test A preemergence, pigweed
Format: in vivo
Conditions: 125 g ai/ha, visual injury, 0 to 100 scale (0 no effect, 100 complete control), approx. 10 days
From the text: Seeds of plant species selected from barnyardgrass (Echinochloa crus-galli), kochia (Bassia scoparia), ragweed (common ragweed, Ambrosia artemisiifolia), Ryegrass, Italian (Italian ryegrass, Lolium multiflorum), Foxtail, Giant (giant foxtail, Setaria faberi), and pigweed (Amaranthus retroflexus) were planted into a blend of loam soil and sand and treated preemergence with a directed soil spray using test chemicals formulated in a non-phytotoxic solvent mixture which included a surfactant. […]
Number only, no unit.

Worked examples follow.
Briefly, Plant response rating, Pigweed measured for Cc1cc(F)c(C(=O)N2CC(C)OC(C)C2)cc1NS(=O)(=O)C(F)(F)F (stereo not drawn) : 20

Briefly, Plant response rating, Pigweed measured for "C#CCN(C)C(=O)c1cc(NS(=O)(=O)C(F)(F)F)c(C)cc1C" : 90

Briefly, Plant response rating, Pigweed measured for Cc1cc(C)c(N(S(=O)(=O)C(F)(F)F)S(=O)(=O)C(F)(F)F)cc1C1=NOC(C)(CCl)C1 (stereo not drawn) : 50

Briefly, Plant response rating, Pigweed measured for "CCC1(CC)CC(c2cc(NS(=O)(=O)C(F)(F)F)c(C)cc2C)=NO1" : 0

Briefly, Plant response rating, Pigweed measured for "Cc1cc(Cl)c(NS(=O)(=O)C(F)(F)F)cc1C(=O)N1CCC(Cl)CC1" : 100

Briefly, Plant response rating, Pigweed measured for "Cc1cc(Cl)c(C(=O)N2CCCCC2)cc1N(S(=O)(=O)C(F)(F)F)S(=O)(=O)C(F)(F)F" : 100

Briefly, Plant response rating, Pigweed measured for "Cc1cc(C)c(N(S(=O)(=O)C(F)(F)F)S(=O)(=O)C(F)(F)F)cc1C(=O)N1CCCOCC1" : 80

Briefly, Plant response rating, Pigweed measured for "Cc1cc(C)c(C(=O)N2CCC(CC(F)(F)F)CC2)cc1NS(=O)(=O)C(F)(F)F" : 50

Briefly, Plant response rating, Pigweed measured for "CSC(=O)N(c1cc(C2=NOC3(CCCC3)C2)c(C)cc1C)S(=O)(=O)C(F)(F)F" : 40

Briefly, Plant response rating, Pigweed measured for "Cc1cc(Cl)c(NS(=O)(=O)C(F)(F)F)cc1C1=NOC(C)(C)C1" : 60

---
Briefly, Plant response rating, Pigweed measured for "Cc1cc(C)c(N(S(=O)(=O)C(F)(F)F)S(=O)(=O)C(F)(F)F)cc1N1CCC2(CCCC2)C1=O" : 70

Briefly, Plant response rating, Pigweed measured for "Cc1cc(C)c(N(S(=O)(=O)C(F)(F)F)S(=O)(=O)C(F)(F)F)cc1C1=NOC2(CCCCC2)C1" : 70
